pIC50: −log10 of the molar value.
Multi-source literature compilation: pIC50 on PPARδ (Homo sapiens, UniProt Q03181).

>  <molecule>
Cc1cc(OC(C)C(=O)Nc2cccc(-c3ccc(C(F)(F)F)cc3)c2)ccc1OC(C)(C)C(=O)O (racemic)

>  <rel>
=

>  <pIC50>
6.24

$$$$
>  <molecule>
O=C(O)Cn1ccc2ccc(OCCCC#Cc3cccc(OC(F)(F)F)c3)cc21

>  <rel>
=

>  <pIC50>
6.83

$$$$
>  <molecule>
Cc1nc(-c2ccc(C(F)(F)F)cc2)sc1C(C)Oc1ccc2ccn(CC(=O)O)c2c1 (racemic)

>  <rel>
=

>  <pIC50>
7.62

$$$$
>  <molecule>
CC(=O)Oc1ccc2c(c1)[C@@]1(C)CCC[C@](C)(C(=O)OC(=O)[C@@]3(C)CCC[C@]4(C)c5cc(OC(C)=O)ccc5CC[C@@H]34)[C@@H]1CC2

>  <rel>
<

>  <pIC50>
5.00

$$$$
>  <molecule>
CC(C)(Oc1ccc(CCCC(=O)Nc2cnc(-c3ccc(C(F)(F)F)cc3)nc2C2CC2)cc1)C(=O)O

>  <rel>
<

>  <pIC50>
5.00

$$$$
